Numbers sourced from paper PMC8815882.

system: M. mycetomatis genome strain MM55; experiment: CLSI M38-A2 based in vitro susceptibility screening (XTT or resazurin), growth at fixed concentration; assay type: cell-based, Madurella mycetomatis; conditions: Madurella mycetomatis, 100 uM, replicate (first column); read-out: Percentage survival at 100um, 100 uM A
Quick reference: activity at 100 µM of the listed items.

These solved cases illustrate the format of a correct answer.
1. OB1OCc2c1ccc(Cl)c2F    55.3%
2. O=C(Nc1cccc(C2=NCCN2)c1)c1ccc(-c2ccc(C(=O)Nc3cccc(C4=NCCN4)c3)cc2)cc1    6.17%
3. Nc1nc(O)ncc1F    93.5%
4. O=C(Nc1[nH]c(=O)ncc1F)c1ccccc1    74.1%

Task: For M. mycetomatis genome strain MM55, give activity at 100 µM of the listed compound: CCOC(=O)Nc1cc(NC(C)CC(C)CN(CC)CC)c2nc(-c3ccccc3)c(-c3ccccc3)nc2n1 (stereo not drawn)
Output: 73.9%

Task: For M. mycetomatis genome strain MM55, give activity at 100 µM of the listed compound: CN(Cc1ccc(C(C)(C)C)cc1)Cc1cccc2ccccc12
Output: 61.4%

Task: For M. mycetomatis genome strain MM55, give activity at 100 µM of the listed compound: COc1cc(NCc2ccc3nc(N)nc(N)c3c2C)cc(OC)c1OC
Output: 74.1%

Task: For M. mycetomatis genome strain MM55, give activity at 100 µM of the listed compound: O=C(NCc1cccc2ccccc12)c1cccs1
Output: 90%
